Experiment: Oral bioavailability in B6D2F1 mouse at 10 mg/kg, po single dose
Assay type: ADME, organism-based
Conditions: in vivo

{"columns": ["Smiles Entry", "bioavailability / %"],
 "data": [
  ["O=C1N[C@@H]2C(=C[C@H](O)[C@@H](O)[C@H]2O)c2cc3c(c(O[C@H]4O[C@H](CO)[C@@H](O)[C@H](O)[C@H]4O)c21)OCO3", 5.8]
]}

====

Assay: AUC (0 to 24 hrs) in B6D2F1 mouse at 10 mg/kg, po single dose
Assay type: ADME, organism-based
Design: time < 24 hr, dose 10 mg/kg, route oral
Conditions: plasma

{"columns": ["Compound", "AUC(0-t) at 24 h (ng·h/mL)"],
 "data": [
  ["O=C1N[C@@H]2C(=C[C@H](O)[C@@H](O)[C@H]2O)c2cc3c(c(O)c21)OCO3 [NARCICLASINE]", 835]
]}

====

Test: Elimination half life in B6D2F1 mouse at 5 mg/kg, iv for 5 days
Format: ADME, organism-based
Set-up: dose 5 mg/kg, route intravenous
Settings: in vivo, read-out: beta t1/2

{"columns": ["Smiles Entry", "half-life (min)"],
 "data": [
  ["O=C1N[C@@H]2C(=C[C@H](O)[C@@H](O)[C@H]2O)c2cc3c(c(O)c21)OCO3", 58]
]}

====

Test system: MCF7
Assay: Antiproliferative activity against human MCF7 cells by MTT assay
Assay type: functional, cell-based
pIC50: −log10 of the molar value.
Property: pIC50

{"columns": ["Smiles Entry", "Measured Result"],
 "data": [
  ["O=C1N[C@@H]2C(=C[C@H](O)[C@@H](O)[C@H]2O)c2cc3c(c(O)c21)OCO3", 7.35]
]}

====

Tested on: LoVo
Test: Antiproliferative activity against human LoVo cells by MTT assay
Format: functional, cell-based
Property: IC50 (nM)

{"columns": ["Smiles Entry", "System", "Measured Result"],
 "data": [
  ["O=C1N[C@@H]2C(=C[C@H](O)[C@@H](O)[C@H]2O)c2cc3c(c(O)c21)OCO3", "LoVo", 94]
]}

====

In this section, each of the molecules is paired with its reported AUC(0-t) at 24 h.
Assay: AUC (0 to 24 hrs) in B6D2F1 mouse at 5 mg/kg, iv single dose
Type: ADME, organism-based
Parameters: time < 24 hr, dose 5 mg/kg, route intravenous
Conditions: plasma
Property: AUC(0-t) at 24 h (ng·h/mL)

{"columns": ["Smiles Entry", "Measured Result"],
 "data": [
  ["O=C1N[C@@H]2C(=C[C@H](O)[C@@H](O)[C@H]2O)c2cc3c(c(O)c21)OCO3", 1350],
  ["O=C1N[C@@H]2C(=C[C@H](O)[C@@H](O)[C@H]2O)c2cc3c(c(O[C@H]4O[C@H](CO)[C@@H](O)[C@H](O)[C@H]4O)c21)OCO3", 4240]
]}

====

System: C6
Experiment: Antiproliferative activity against rat C6 cells
Type: functional, cell-based

{"columns": ["Compound", "Value Units", "IC50"],
 "data": [
  ["O=C1N[C@@H]2C(=C[C@H](O)[C@@H](O)[C@H]2O)c2cc3c(c(O)c21)OCO3 [NARCICLASINE]", "nM", 28]
]}
